- System: K4 kissing-loop RNA reporter;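 further: bound reporter read as fluorescence of individual clusters on recovered sequencing chips by microscopy, with normalized cluster intensities fitted with a binding model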
- assay_explanation: apparent KD of K4 kissing-loop reporter; higher = weaker reporter binding
- measurement_setup: Eterna round: R107; input ligand: none
Output Yes for apparent KD of K4 kissing-loop reporter not less than 200 nM; output No otherwise.

residue_codes	target_or_system	assigned_label
AUGUCUUAUAAACUCAUGGUUUCGACAGAUACCAGCUUCGAGAGGAGCCCUUGGCAGCUGCAUGAGUGAUGUUCAUGUACGAAGA [KL-XTheoA6]	K4 kissing-loop RNA reporter	Yes
UCCAGGAAUCAUGUCGUAGUGAUGUUAUGACGAGGACCGGUACGGCCGCCACUCGUCGUGGCCGGUUCUGAGGGCUAAUCUCUCA [theeternabot_exclusion_KL_Trp_A_34]	K4 kissing-loop RNA reporter	Yes
UAAUAAAUUCUGGCAAUGUCACUCUUCGAAGGAGCGGACGAAAGUCCAGGUAGGUCGCGAAGAGUGAUGUUCUUCGCGGCGCCAG [Omei KL Arginine A Exc A v1]	K4 kissing-loop RNA reporter	Yes
CAUAUAUAUAGAGGAUAUCGAGUAGAGUGAUGUUCUGCCUGGGUUGGCUCGCAAGGGCCUUCCCAGCGAGAAGGCUAUAUAUAUG [harrys-mod#1ED5.33]	K4 kissing-loop RNA reporter	Yes
AGUGAUGUUGUGUUAUGCAAGGGAAGUGAUCGAGGACCGGUACGGCCGCCACUCGAGUGAUGAGUGAGUGAUGUUUGUUUAGGGA [ffgmullin]	K4 kissing-loop RNA reporter	Yes
AACGACUGGAUGAAUAACAUCUAGUCGAUUCGAGGACCGGUACGGCCGCCACUCGAGCUAACUGCGAGUGAUGUUCGAUAAUAAA [#OpenEnded 3]	K4 kissing-loop RNA reporter	Yes
AGGUACUACGGAAGGAGCGCACCAGUGAUGUUGGUGUGUGACCGUGACAUGGCAGUCAAGGUGCAGGUAGGUCGCCGUGGCCUUU [Anatartibe]	K4 kissing-loop RNA reporter	No
GGUGUUGUUUGUGCUGUUUUCCUCGUUUCUCGAGGACCGGUACGGCCGCCACUCGAGUGAUGUUUGGGUAGCGAUCUUUGUUAGU [Bdazzled - #5 Exc. Tryptophan A]	K4 kissing-loop RNA reporter	No
GCGAACAUUCGCAGUGAUGUUGCGACGGAAGGAGCGCGUGAAAACGCAGGUAGGUCGCCGACAACAUUAAUUUUAAUGUGUUCGC [Arginine A K4 28]	K4 kissing-loop RNA reporter	Yes
AUAAUUAUAUAGAAAUAUAUAAUUAUAUAACGAGGACCGGUACGGCCGCCACUCGUGCCGGGCAUAAAAUGAGUGAUGUUCAUGU [KL-XTryp-A7 #analogue]	K4 kissing-loop RNA reporter	Yes
UCGAUAGCCAGCGAUACCAGCCCAGUGAUGUUGGGCACAUGGUUGCGGGAAAUCCUAUUGGGCCCUUGGCAGCGCUUGCAUGGGU [Anbixeza]	K4 kissing-loop RNA reporter	No
CCAAUCAGUUACGAUACCAGUCUAAUAUAUUUGAUCAAAACCCUCGCCGAGUGAUGUUCGGACCCUUGGCAGCGUCUGGGACAGG [fcctmullin]	K4 kissing-loop RNA reporter	Yes
AUUAUAAAGACGGCCGCCACUGAGAGUAGUGAUGUUACUCUUUUCCUUUAGAUAUUAUAUUUUAUCAGGACCGGGUUUUUUGAUU [JR_Nu_ExcTryptoB_Sub025]	K4 kissing-loop RNA reporter	No
AAAUGUUUGUAUUUGAACAAUUUCCUUAGAGAGGAUAUUGGUAAUACAAGAAGGCUCUGAUGGGAGUGAUGUUCCCAUAACGCGG [Exclusion FMN A GF14]	K4 kissing-loop RNA reporter	No
CGCGCCCAGCCGGAUACCAGUGACCCGCUGGGAACCGCGGGCCCAGAGUGAUGUUCGGGACACCCUUGGCAGCCGCCUGGGCGGG [#2 Same State - Theophylline B Attempt #16 (HarryS)]	K4 kissing-loop RNA reporter	Yes
ACAUUAGCGAGUGAUGUUCGCUAAGACGAAGGAGCGCUCGCGAGAGCAGGUAGGUCGCGUCUAGUGUCACUGUACUAAAUAGUGA [Arg A SS t12]	K4 kissing-loop RNA reporter	No
CGAAGAUUCCAUGAUACCAGCCUCGGCCCAUAGAGUGAUGUUCUAGUCGGGUCCGUUCGCGGCCCUUGGCAGCAUUUCACCACGA [theeternabot_sameState_KL_Theo_B_44]	K4 kissing-loop RNA reporter	No
AUCGUUGUCUGAGGAUAUCGGUUAUCUGUAGUGAUGUUACAGUAUAUUCAUAUUAUACUUUCUAUUCGAGAAGGCAGACUACGUA [JR_Nu_ExcFMNB_Sub020]	K4 kissing-loop RNA reporter	No
GGAGGGAUCUCGGCCGCCACUCAUAAGAAAUGGGCCUCAGAGAUAUAGUGAUGUUAUGUAAAGAAGAGGACCGGGAGAAAGAAGG [ExTryptoB.Db]	K4 kissing-loop RNA reporter	No
